Molecular target: S1P1 (Homo sapiens, UniProt P21453)
Sequence (P21453 whole entry): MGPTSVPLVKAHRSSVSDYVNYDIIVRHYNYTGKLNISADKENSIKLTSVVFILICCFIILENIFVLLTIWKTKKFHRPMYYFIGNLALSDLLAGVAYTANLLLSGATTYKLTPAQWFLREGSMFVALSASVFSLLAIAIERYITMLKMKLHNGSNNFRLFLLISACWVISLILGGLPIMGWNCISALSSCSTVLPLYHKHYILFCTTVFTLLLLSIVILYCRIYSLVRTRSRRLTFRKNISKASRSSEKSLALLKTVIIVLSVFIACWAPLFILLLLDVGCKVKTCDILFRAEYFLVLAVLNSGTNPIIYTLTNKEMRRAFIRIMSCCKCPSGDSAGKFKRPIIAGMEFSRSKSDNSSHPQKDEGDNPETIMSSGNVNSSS
Assay: S1P1 GTPγS assay
Assay type: biochemical
Set-up: expressed in transfected cells; host or cells: RH7777 cells (membranes)
Details: tested in one of the above S1P1 assays (two protocols)
outcome measure: EC50

smiles text: CC(C)Oc1ccc(-c2nnc(-n3cc4c(n3)CCN(CCC(=O)O)C4)s2)cc1Cl
target entity: S1P1 (Homo sapiens, UniProt P21453)
EC50: ≤ 100 nM
--
smiles text: CC(C)Oc1ccc(-c2nnc(-n3cc4c(n3)CCN(CCC(=O)O)C4)s2)cc1C#N
target entity: S1P1 (Homo sapiens, UniProt P21453)
EC50: ≤ 100 nM
--
smiles text: CC(C)Oc1ccc(-c2nnc(-n3cc4c(n3)CCN(CCCC(=O)O)C4)s2)cc1Cl
target entity: S1P1 (Homo sapiens, UniProt P21453)
EC50: ≤ 100 nM

We next turn to a different compound, shown below.
// query Form field: EC50 recorded for Cc1c2c(nn1-c1nnc(-c3ccc(OC(C)C)c(Cl)c3)s1)CCN(CCC(=O)O)C2 with S1P1 (Homo sapiens, UniProt P21453) (enter value)
// result ≤ 10 nM

----------
Molecular target: S1P1 (Homo sapiens)
Test: S1P-1 β-Arrestin recruitment assay
Type: cell-based
Parameters: host or cells: PathHunter CHO-K1 EDG1 β-Arrestin cell line
Settings: PathHunter CHO-K1 EDG1 β-Arrestin cell line, chemi-luminescence
Where a name gives a salt, the structure may show the parent alone.
EC50 for assorted compounds

// known answers, use as guide
compound: Cc1c2c(nn1-c1nnc(-c3ccc(OC(C)C)c(C#N)c3)s1)CCN(CCC(=O)O)C2 [Example 4, trifluoroacetic acid salt]
target entity: S1P1 (Homo sapiens)
reading: ≤ 10 nM
--
compound: Cc1c2c(nn1-c1nnc(-c3ccc(OC(C)C)c(Cl)c3)s1)CCN(CCC(=O)O)C2 [Example 2]
target entity: S1P1 (Homo sapiens)
reading: ≤ 10 nM
--
compound: CC(C)Oc1ccc(-c2nnc(-n3cc4c(n3)CCN(CCCC(=O)O)C4)s2)cc1C#N [Example 13]
target entity: S1P1 (Homo sapiens)
reading: ≤ 10 nM
--
compound: Cc1c2c(nn1-c1nnc(-c3ccc(OC(C)C)c(C#N)c3)s1)CCN(CCC(N)=O)C2 [Example 5]
target entity: S1P1 (Homo sapiens)
reading: ≤ 10 nM
--
compound: Cc1c2c(nn1-c1nnc(-c3ccc(OC(C)C)c(C#N)c3)s1)CCN(C(=O)CNC[C@H](C)O)C2 [Example 33]
target entity: S1P1 (Homo sapiens)
reading: ≤ 100 nM

// query Query: EC50; subject: CC(C)Oc1ccc(-c2nnc(-n3cc4c(n3)CCN(CCC(=O)O)C4)s2)cc1C#N [Example 12]
// result ≤ 10 nM

// query Query: EC50; subject: Cc1c2c(nn1-c1nnc(-c3ccc(OC(C)C)c(Cl)c3)s1)CCN(C[C@H](O)CO)C2 [Example 42, formic acid salt]
// result ≤ 100 nM

----------
Target: S1P1 (Homo sapiens)
Test: S1P-1 β-Arrestin recruitment assay
Type: cell-based
Set-up: host or cells: PathHunter CHO-K1 EDG1 β-Arrestin cell line
Details: PathHunter CHO-K1 EDG1 β-Arrestin cell line, chemi-luminescence
pEC50: −log10 of the molar value.
pEC50 for assorted molecules

// known answers, use as guide
molecule: Cc1c2c(nn1-c1nnc(-c3ccc(OC(C)C)c(C#N)c3)s1)CCN(C(=O)CNC[C@H](O)CO)C2 [Example 34]
pEC50: ≥ 8.00
--
molecule: CC(C)Oc1ccc(-c2nnc(-n3ncc4c3CCN(CCC(=O)O)C4)s2)cc1Cl [Example 15]
pEC50: ≥ 7.00
--
molecule: CC(C)Oc1ccc(-c2nnc(-n3cc4c(n3)CCN(CCCC(=O)O)C4)s2)cc1Cl [Example 7]
pEC50: ≥ 8.00
--
molecule: Cc1c2c(nn1-c1nnc(-c3ccc(OC(C)C)c(C#N)c3)s1)CCNC2 [Example 3]
pEC50: ≥ 7.00
--
molecule: CC(C)Oc1ccc(-c2nnc(-n3cc4c(n3)CCN(CCC(=O)O)C4)s2)cc1Cl [Example 8]
pEC50: ≥ 8.00
--
molecule: Cc1c2c(nn1-c1nnc(-c3ccc(OC(C)C)c(C#N)c3)s1)CCN(C[C@H](O)CO)C2 [Example 26]
pEC50: ≥ 8.00

We next turn to a different molecule, shown below.
// query Query: pEC50; subject: COC(=O)[C@H](O)CN1CCc2nn(-c3nnc(-c4ccc(OC(C)C)c(Cl)c4)s3)c(C)c2C1 [Example 41]
// result ≥ 8.00

// provenance: patent US20120101086A1
